# test target: 17-beta-hydroxysteroid dehydrogenase type 3 (Homo sapiens)
# method notes: Inhibition of 17beta-HSD3 (unknown origin) expressed in human LNCAP cells assessed as reduction in [14C]-testosterone formation from [14C]-4-androstene-3,17-dione at 0.1 uM measured after 1 hr relative to control
# Assay type: cell-based
property: inhibition (%)

Examples with answers:
>  <compound>
CC1CN(S(=O)(=O)c2ccccc2C(F)(F)F)C(C)CN1C[C@@]1(O)CC[C@@]2(C)[C@@H](CC[C@@H]3[C@@H]2CC[C@]2(C)/C(=N/O)CC[C@@H]32)C1 (stereo partly specified)

>  <quantity unit>
%

>  <observed>
40

$$$$
>  <compound>
CC1CN(S(=O)(=O)c2ccccc2C(F)(F)F)C(C)CN1CCc1ccc2c(c1)CC[C@@H]1[C@@H]2CC[C@]2(C)C(=O)CC[C@@H]12 (stereo partly specified)

>  <quantity unit>
%

>  <observed>
38

$$$$
>  <compound>
CC1CN(S(=O)(=O)c2ccccc2C(F)(F)F)C(C)CN1C[C@@]1(O)CC[C@@]2(C)[C@@H](CC[C@@H]3[C@@H]2CC[C@]2(C)[C@@H](O)CC[C@@H]32)C1 (stereo partly specified)

>  <quantity unit>
%

>  <observed>
38

$$$$
>  <compound>
CC1CN(S(=O)(=O)c2ccccc2C(F)(F)F)C(C)CN1C[C@@]1(O)CC[C@@]2(C)[C@@H](CC[C@@H]3[C@@H]2CC[C@@]2(C)[C@H]3CC[C@@]23CO3)C1 (stereo partly specified)

>  <quantity unit>
%

>  <observed>
5

$$$$
>  <compound>
CC1CN(S(=O)(=O)c2ccccc2C(F)(F)F)C(C)CN1C(=O)c1ccc2c(c1)CC[C@@H]1[C@@H]2CC[C@]2(C)C(=O)CC[C@@H]12 (stereo partly specified)

>  <quantity unit>
%

>  <observed>
45

$$$$
>  <compound>
CC1CN(S(=O)(=O)c2ccccc2C(F)(F)F)C(C)CN1C[C@@]1(O)CC[C@@]2(C)[C@@H](CC[C@@H]3[C@@H]2CC[C@]2(C)[C@@H](O)[C@H](F)C[C@@H]32)C1 (stereo partly specified)

>  <quantity unit>
%

>  <observed>
12

$$$$
>  <compound>
CO[C@H]1CC[C@H]2[C@@H]3CC[C@H]4C[C@@](O)(CN5CC(C)N(S(=O)(=O)c6ccccc6C(F)(F)F)CC5C)CC[C@]4(C)[C@H]3CC[C@]12C (stereo partly specified)

>  <quantity unit>
%

>  <observed>
10

$$$$

a = C#C[C@]1(O)CC[C@H]2[C@@H]3CC[C@H]4C[C@@](O)(CN5CC(C)N(S(=O)(=O)c6ccccc6C(F)(F)F)CC5C)CC[C@]4(C)[C@H]3CC[C@@]21C (stereo partly specified)
b = CC1CN(S(=O)(=O)c2ccccc2C(F)(F)F)C(C)CN1Cc1cc2c(cc1O)CC[C@@H]1[C@@H]2CC[C@]2(C)C(=O)CC[C@@H]12 (stereo partly specified)
c = CC1CN(S(=O)(=O)c2ccccc2C(F)(F)F)C(C)CN1CC(F)c1ccc2c(c1)CC[C@@H]1[C@@H]2CC[C@]2(C)C(=O)CC[C@@H]12 (mixture of isomers)
d = CC(=O)[C@H]1CC[C@H]2[C@@H]3CC[C@H]4C[C@@](O)(CN5CC(C)N(S(=O)(=O)c6ccccc6C(F)(F)F)CC5C)CC[C@]4(C)[C@H]3CC[C@]12C (stereo partly specified)
Request: Please put the entries in order of rising inhibition. Thanks in advance for listing the labels in the requested order.
Result: a, d, c, b
